assay: protein stability index of a GFP-peptide fusion (yeast GPS) (PSI 1-4); higher = more stable; sorted into four equal gates, so the index is relative within each strain; settings: ubr1∆
experimental_endpoint: protein stability index
Just the number, please, no unit after it.

Below, each entry is followed by its recorded protein stability index result.
GSKKGQEGKISSVYRLK [RPL26A]    3.33
IGLPRHSLAYLLENFAN [RRP6]    1.87
FEQKGSQTTTNDSKEES [YLR335W/NUP2]    3.23
HTSSSDGNNEIFTCQIM [RPN4]    2.86
NVEPTENAYKSENAPSA [YAR002W/NUP60]    3.03

Look up protein stability index for this sequence: AAFKDIAKRQFKEILTV [RRP40]
2.55

Look up protein stability index for this sequence: SLSDELNLDEIVACELI [YJL039C/NUP192]
2.61

Look up protein stability index for this sequence: AGGAADCQFWETWLGSQ [PRE2]
3.77

Look up protein stability index for this sequence: IKETKENDEEFYKNKYS [RPN2]
1.51

Look up protein stability index for this sequence: SSFTFGSTTIEKKNDEN [YLR335W/NUP2]
2.99

Look up protein stability index for this sequence: ESKGNAFKHKRALVEHI [RPL19A]
3.29

Look up protein stability index for this sequence: YLEELQRKKQSDVLRFL [RPL15A]
1.5

Look up protein stability index for this sequence: RNIILEARFDVLITSYE [ISW2]
2.61

Look up protein stability index for this sequence: SQNDGFVIIRGSQILSG [RPO31]
2.61

====

Item-by-item account of protein stability index
experiment: protein stability index of a GFP-peptide fusion (yeast GPS) (PSI 1-4); higher = more stable; sorted into four equal gates, so the index is relative within each strain; conditions: ubr1∆
Just the number, please, no unit after it.

KKKKKGSNQKPKYEPPV [RPT2]    3.12

Look up protein stability index for this sequence: NSSNYFGELQFAFLNAM [AAR2]
2.89

Look up protein stability index for this sequence: HFELGGEKKQKGQALQF [RPL42A]
2.76

Look up protein stability index for this sequence: TWTNSKIFIKDPKFVNS [YML103C/NUP188]
1.73

Look up protein stability index for this sequence: YPSKTLKTDGVRAVSIT [FAS2]
2.23

Look up protein stability index for this sequence: RKDTVSREVLRYEEFAD [RPC40]
3.3

====

assay: protein stability index of a GFP-peptide fusion (yeast GPS) (PSI 1-4); higher = more stable; sorted into four equal gates, so the index is relative within each strain; conditions: san1∆
experimental_endpoint: protein stability index
Just the number, please, no unit after it.

TEQTKSKNPLSLTEATK [YLR335W/NUP2]    2.91

Look up protein stability index for this sequence: SSDELKVIEEQLKHTKL [SMC4]
3.04

Look up protein stability index for this sequence: DSLNDDLNKENKLLRRK [YIL149C/MLP2]
3.01

Look up protein stability index for this sequence: VSKEGLYQLVDIRDSSC [YMR129W/POM152]
2.7

Look up protein stability index for this sequence: PSGRTRGRSVMKESVVE [ESC2]
2.99

Look up protein stability index for this sequence: MLGHYLGEFSITYTPVR [RPS15]
2.04

Look up protein stability index for this sequence: YEDEELSRAEYDSDSDS [LIN1]
3.08

Look up protein stability index for this sequence: IIGKTTPISPDEEELGQ [RPB2]
2.81

Look up protein stability index for this sequence: SCGEEEFFSTNWLSIFN [REC8]
3.34
